Could you please report measured cell viability for the items listed next?
System: HFF
Experiment: cell viability relative to DMSO control; higher = less cytotoxic
Conditions: 1 µM; 72 h
Numeric answer only, unit % assumed.

Any idea what cell viability was measured for `O=C(N[C@H](Cc1cccc2ccccc12)C(=O)NCCc1c[nH]cn1)C1Cc2ccccc2C1` ?
62.3

Any idea what cell viability was measured for `Nc1cc(-c2nc3ccccc3[nH]2)n[nH]c1=O` ?
67.1

Any idea what cell viability was measured for `O=C(O)COc1cccc2c1CC[C@](O)(COC(=O)N(c1ccccc1)c1ccccc1)C2` ?
68.5

Any idea what cell viability was measured for `CCc1nc2ccccn2c1C(=O)NCc1ccccc1` ?
66.8

Any idea what cell viability was measured for `O=C(NCc1ccc2c3c(cccc13)C(=O)N2)c1cccs1` ?
62.2

Any idea what cell viability was measured for `COc1c(F)c(F)cc2c(=O)c(C(=O)O)cn(C3CC3)c12` ?
69.4

Any idea what cell viability was measured for COc1ccc(C2CNC(=O)C2)cc1OC1CCCC1 (stereo not given) ?
69.5

Any idea what cell viability was measured for COc1cc(Cc2cnc(N)nc2N)c2c(c1OC)OC(C1CC1)C=C2 (stereo not given) ?
74.3

Any idea what cell viability was measured for `Nc1nc(-c2ccccc2)nc2[nH]nc(Nc3ccc(C(F)(F)F)cc3)c12` ?
64.3

Any idea what cell viability was measured for `O=C(O)c1cc(-c2ccc(Br)cc2)nc2ccc(Cl)cc12` ?
57.6

Any idea what cell viability was measured for CCc1nc(N)nc(N)c1C#CC(C)c1cc(OC)cc(-c2ccncc2)c1 (stereo not given) ?
79.3

Any idea what cell viability was measured for `C=C(C)[C@@H]1CC[C@]2(C(=O)O)CC[C@]3(C)[C@H](CC[C@@H]4[C@@]5(C)CC[C@H](O)C(C)(C)[C@@H]5CC[C@]43C)[C@@H]12` ?
69.3

Any idea what cell viability was measured for COc1ccc(NC(=O)CC2Sc3ncnn3C2=O)cc1 (stereo not given) ?
73.4

Any idea what cell viability was measured for `Nc1nc(=O)c(Br)c(-c2ccccc2)[nH]1` ?
64.9

Any idea what cell viability was measured for `O=C(NC(=O)N1CCCc2ccccc21)c1cccc(Cl)c1` ?
75.5

Any idea what cell viability was measured for `CC(=O)Nc1cc(NS(=O)(=O)c2ccc(Cl)cc2)cc2c(Cl)[nH]nc12` ?
67.2

Any idea what cell viability was measured for `CCCCCCCCCN1C[C@@H](O)[C@H](O)[C@@H](O)[C@@H]1CO` ?
84.2

Any idea what cell viability was measured for `O=C(/C=C\n1cnc(-c2cc(C(F)(F)F)cc(C(F)(F)F)c2)n1)NNc1ccccn1` ?
62

Any idea what cell viability was measured for `O=[N+]([O-])/C(Br)=C/c1ccc(Br)o1` ?
63.2

Any idea what cell viability was measured for `CCNC(=O)Nc1cc(-c2ccccc2)c(-c2cncc(C(=O)O)c2)cn1` ?
63.8

Any idea what cell viability was measured for `COc1ccc(OCc2ccc(COc3c(Cl)cccc3Cl)cc2)c(Cl)c1` ?
60.4

Any idea what cell viability was measured for `C[C@H]1CC[C@@]2(O)C(C)(C)[C@@H]3CC[C@@]2(C)[C@H]1C3` ?
65.2

Any idea what cell viability was measured for `OCCCCn1cnc2c(O)nc(NCc3ccc(Cl)c(Cl)c3)nc21` ?
62.2

Any idea what cell viability was measured for `CCOC(=O)/C=C/[C@H](C[C@@H]1CCNC1=O)NC(=O)[C@H](CC)n1cccc(NC(=O)c2cc(C)on2)c1=O` ?
68.3

Any idea what cell viability was measured for CC(C)(C)NC(=O)N[C@H](C(=O)N1C[C@H]2[C@@H]([C@H]1C(=O)NC(CC1CCC1)C(=O)C(N)=O)C2(C)C)C(C)(C)C (stereo not given in full) ?
63.4

Any idea what cell viability was measured for COC(=O)Nc1nc2cc([S+]([O-])c3ccccc3)ccc2[nH]1 (stereo not given) ?
64.6

Any idea what cell viability was measured for `O=C(O)[C@H]1C2CCC(CC2)[C@@H]1Nc1nc(-c2c[nH]c3ncc(F)cc23)ncc1F` ?
67

Any idea what cell viability was measured for `O=C(O)C[C@H]1CC[C@H](c2ccc(-c3ccc(Nc4ccc(C(F)(F)F)nc4)cn3)cc2)CC1` ?
67.6

Any idea what cell viability was measured for `C=CCc1cc(Cc2cnc(N)nc2N)cc(OC)c1O` ?
72.9

Any idea what cell viability was measured for `Cc1c[nH]c(=O)nc1NCc1ccccc1` ?
66.7

Any idea what cell viability was measured for `CN(Cc1ccc(C(C)(C)C)cc1)Cc1cccc2ccccc12` ?
62.8

Any idea what cell viability was measured for `CCOC(=O)/C=C/[C@H](C[C@@H]1CCNC1=O)NC(=O)[C@@H](CC(=O)[C@@H](NC(=O)c1cc(C)on1)C(C)C)Cc1ccc(F)cc1` ?
73.2

Any idea what cell viability was measured for `NC[C@H]1O[C@H](O[C@H]2[C@H](O)[C@@H](O[C@H]3O[C@H](CO)[C@@H](O)[C@H](N)[C@H]3O)[C@H](N)C[C@@H]2N)[C@H](N)C[C@@H]1O` ?
68.2

Any idea what cell viability was measured for `O=C(Cn1cnc2ccccc2c1=O)Nc1ccccc1` ?
62.8

Any idea what cell viability was measured for `C[C@H](NC(=O)C(=O)Nc1ccccc1C(C)(C)C)C(=O)N[C@@H](CC(=O)O)C(=O)COc1c(F)c(F)cc(F)c1F` ?
55.9

Any idea what cell viability was measured for `O=C(Nc1ccc(N2CCN(C(=O)c3ccccc3)CC2)cc1)c1ccc2c(c1)OCO2` ?
60.1

Any idea what cell viability was measured for `CS(=O)(=O)c1ccc(Oc2ccc(Cl)cc2)cc1` ?
69.7

Any idea what cell viability was measured for `CC[C@@]1(O)C(=O)OCc2c1cc1n(c2=O)Cc2cc3c([N+](=O)[O-])cccc3nc2-1` ?
53.1

Any idea what cell viability was measured for CC[N+]1(C/C2=C/CCCCCC2)CCC(NC(=O)C2c3cc(Cl)ccc3Oc3ccc(Cl)cc32)CC1 (stereo not given) ?
65.6

Any idea what cell viability was measured for `O=c1[nH]c(=O)n(Cc2cccc(Oc3ccccc3)c2)cc1Nc1ccccc1` ?
63.8

----------
Test system: HFF
Assay: cell viability relative to DMSO control; higher = less cytotoxic
Conditions: 1 µM; 72 h
Could you please report measured cell viability for the items listed next?
Numeric answer only, unit % assumed.

Any idea what cell viability was measured for O=C(CC1Sc2ncnn2C1=O)Nc1ccc(Br)cc1 (stereo unspecified) ?
59.7

Any idea what cell viability was measured for `Nc1nc(-c2ccccc2)nc2c1ncn2[C@@H]1O[C@H](COS(=O)(=O)NC(=O)c2ccccc2O)[C@@H](O)[C@H]1O` ?
72.2

Any idea what cell viability was measured for `Oc1cc(-c2cccc3ccccc23)[nH]n1` ?
66.8

Any idea what cell viability was measured for `CCc1cc(O)c(Oc2ccc(C(N)=O)cc2F)cc1F` ?
67.9

Any idea what cell viability was measured for `C(=C\c1nc2ccccc2[nH]1)/c1ccc2c(c1)OCO2` ?
63.4

Any idea what cell viability was measured for `CCc1c(O)nc2ccc(F)cc2c1OCC1CCC1` ?
56.8

Any idea what cell viability was measured for `CC(C)(C)c1ccc(C(=O)NC(=O)N2CCCc3ccccc32)cc1` ?
63.5

Any idea what cell viability was measured for `CC(C)Nc1nc2cc(Cl)c(Cl)cc2n1[C@H]1O[C@@H](CO)[C@H](O)[C@@H]1O` ?
67.8

Any idea what cell viability was measured for O=C(O)C(Cc1c[nH]c2ccccc12)N1C(=O)c2ccccc2C1=O (stereo unspecified) ?
68.5

Any idea what cell viability was measured for `Cc1c(F)cccc1NC(=O)Nc1ccc(Cl)c(S(=O)(=O)[C@H]2CCCNC2)c1O` ?
60.8

Any idea what cell viability was measured for `COc1cc(NC(=O)CN2C(=O)NC(c3ccccc3)(c3ccccc3)C2=O)cc(OC)c1` ?
61

Any idea what cell viability was measured for `NC(=O)c1cnccn1` ?
68.1

Any idea what cell viability was measured for `NCCCc1ccccc1C(=O)Nc1ncc([N+](=O)O)s1` ?
65

Any idea what cell viability was measured for `Oc1ccc(NCc2ccccc2OCc2ccccc2)cc1` ?
70.1

Any idea what cell viability was measured for CCOc1ccc(/C=N/NC(=O)C2CC2c2ccc(C(C)(C)C)cc2)cc1OCC (stereo unspecified) ?
57.3

Any idea what cell viability was measured for `O=C(O)CSc1cc(NS(=O)(=O)c2cccc3cccnc23)c2ccccc2c1O` ?
59.6

Any idea what cell viability was measured for `CCc1nc2ccc(Cl)cn2c1C(=O)NCc1ccc(N2CCC(c3ccc(OC(F)(F)F)cc3)CC2)cc1` ?
63.2

Any idea what cell viability was measured for `CN1CCN(Cc2ccc(-c3cnc4[nH]cc(-c5ccc6[nH]ccc6c5)c4c3)cc2)CC1` ?
75.3

Any idea what cell viability was measured for `Cc1ccc(C)c(OCCCCCCN2C[C@H](O)[C@@H](O)[C@H](O)[C@H]2CO)c1` ?
64.6

Any idea what cell viability was measured for `COc1ccc(CNC(=O)C2CCN([C@H](C)c3cccc4ccccc34)CC2)cc1` ?
62.6

Any idea what cell viability was measured for `O=C(Nc1cccc(C2=NCCN2)c1)c1ccc(-c2ccc(C(=O)Nc3cccc(C4=NCCN4)c3)cc2)cc1` ?
63.4

The values you see were collected from the supplement of paper PMC10941209.
